B1: library; a variant is named by its letters at N, in order (parent)
chain: GAGACCGCAACTGAAAAGTTGTGGNNNNNATAGTGAGTCGCTGCCTGCAAAGACACAACT

Variants of: B1
Assay: ligation selection enrichment (abundance after / before one-round selection) (fold); higher = more template-directed ligation activity
Conditions: with T7Psub CACGGAUGCUAAUACGACUCACUAUA; MgCl2 25 mM; 42 °C; 4 h; pH 8.5
Provide the reported ligation selection enrichment of each item.
API note: the answer field is a bare number with no unit suffix.

Specify measured ligation selection enrichment for TCTTC . 0.0955

Specify measured ligation selection enrichment for ACACT . 0.474

Specify measured ligation selection enrichment for ATTCC . 0.246

Specify measured ligation selection enrichment for TAAGA . 0.977

Specify measured ligation selection enrichment for TAAGC . 0.165

Specify measured ligation selection enrichment for CTGTA . 0.136

Specify measured ligation selection enrichment for CTTTT . 0.631

Specify measured ligation selection enrichment for CACAC . 0.168

Specify measured ligation selection enrichment for AGAGC . 0.196

Specify measured ligation selection enrichment for CTACT . 0.785

Specify measured ligation selection enrichment for GTACC . 0.165

Specify measured ligation selection enrichment for TCTCG . 0.368

Specify measured ligation selection enrichment for CTGGC . 0.135

Specify measured ligation selection enrichment for GAGCT . 0.597

Specify measured ligation selection enrichment for GGCGT . 0.168

Specify measured ligation selection enrichment for GCGTT . 0.288

Specify measured ligation selection enrichment for TTTTC . 0.167

Specify measured ligation selection enrichment for AGACA . 0.206

Specify measured ligation selection enrichment for GGTAA . 0.348

Specify measured ligation selection enrichment for CACCG . 0.217

Specify measured ligation selection enrichment for CGATT . 4.38

Specify measured ligation selection enrichment for CGGGT . 0.147
